assay_remarks: Stability of CGA acyl analogues in methanol solution (HPLC)
Format: physicochemical
experimental_setup: 25 °C, day 1
measured_parameter: Amount remaining in methanol (HPLC area) (%)

CCCC(=O)Oc1ccc(/C=C/C(=O)OC2CCCCC2)cc1OC(=O)CCC [Compound 13a] : 91.3520
O=C(/C=C/c1ccc(OC(=O)C2CCCCC2)c(OC(=O)C2CCCCC2)c1)OC1CCCCC1 [Compound 13d] : 96.9973
CC(=O)Oc1ccc(/C=C/C(=O)OC2CCCCC2)cc1OC(C)=O : 71.1918
CCCCCC(=O)Oc1ccc(/C=C/C(=O)OC2CCCCC2)cc1OC(=O)CCCCC [Compound 13b] : 93.7356
CC(C)(C)C(=O)Oc1ccc(/C=C/C(=O)OC2CCCCC2)cc1OC(=O)C(C)(C)C [Compound 13c] : 99.3034
